target: CFTR (F508del/MF-HBE cells) (Homo sapiens, UniProt P13569, DEL508-508); construct: human bronchial epithelial (HBE) cells derived from CF subjects heterozygous for F508del and a minimal function CFTR mutation (F508del/MF-HBE); endogenous in cells; host or cells: Primary human bronchial epithelial cells from CF subjects (F508del/MF genotype), differentiated at an air-liquid interface; test: Ussing chamber assay of CFTR-mediated short-circuit currents, Assay D (single concentration of 1 μM); assay type: cell-based; conditions: with 44 nM potentiator and 18 μM Tezacaftor, 18-24 hours, 20% human serum
Sequence (P13569 with tags, fused parts or gaps DEL508-508): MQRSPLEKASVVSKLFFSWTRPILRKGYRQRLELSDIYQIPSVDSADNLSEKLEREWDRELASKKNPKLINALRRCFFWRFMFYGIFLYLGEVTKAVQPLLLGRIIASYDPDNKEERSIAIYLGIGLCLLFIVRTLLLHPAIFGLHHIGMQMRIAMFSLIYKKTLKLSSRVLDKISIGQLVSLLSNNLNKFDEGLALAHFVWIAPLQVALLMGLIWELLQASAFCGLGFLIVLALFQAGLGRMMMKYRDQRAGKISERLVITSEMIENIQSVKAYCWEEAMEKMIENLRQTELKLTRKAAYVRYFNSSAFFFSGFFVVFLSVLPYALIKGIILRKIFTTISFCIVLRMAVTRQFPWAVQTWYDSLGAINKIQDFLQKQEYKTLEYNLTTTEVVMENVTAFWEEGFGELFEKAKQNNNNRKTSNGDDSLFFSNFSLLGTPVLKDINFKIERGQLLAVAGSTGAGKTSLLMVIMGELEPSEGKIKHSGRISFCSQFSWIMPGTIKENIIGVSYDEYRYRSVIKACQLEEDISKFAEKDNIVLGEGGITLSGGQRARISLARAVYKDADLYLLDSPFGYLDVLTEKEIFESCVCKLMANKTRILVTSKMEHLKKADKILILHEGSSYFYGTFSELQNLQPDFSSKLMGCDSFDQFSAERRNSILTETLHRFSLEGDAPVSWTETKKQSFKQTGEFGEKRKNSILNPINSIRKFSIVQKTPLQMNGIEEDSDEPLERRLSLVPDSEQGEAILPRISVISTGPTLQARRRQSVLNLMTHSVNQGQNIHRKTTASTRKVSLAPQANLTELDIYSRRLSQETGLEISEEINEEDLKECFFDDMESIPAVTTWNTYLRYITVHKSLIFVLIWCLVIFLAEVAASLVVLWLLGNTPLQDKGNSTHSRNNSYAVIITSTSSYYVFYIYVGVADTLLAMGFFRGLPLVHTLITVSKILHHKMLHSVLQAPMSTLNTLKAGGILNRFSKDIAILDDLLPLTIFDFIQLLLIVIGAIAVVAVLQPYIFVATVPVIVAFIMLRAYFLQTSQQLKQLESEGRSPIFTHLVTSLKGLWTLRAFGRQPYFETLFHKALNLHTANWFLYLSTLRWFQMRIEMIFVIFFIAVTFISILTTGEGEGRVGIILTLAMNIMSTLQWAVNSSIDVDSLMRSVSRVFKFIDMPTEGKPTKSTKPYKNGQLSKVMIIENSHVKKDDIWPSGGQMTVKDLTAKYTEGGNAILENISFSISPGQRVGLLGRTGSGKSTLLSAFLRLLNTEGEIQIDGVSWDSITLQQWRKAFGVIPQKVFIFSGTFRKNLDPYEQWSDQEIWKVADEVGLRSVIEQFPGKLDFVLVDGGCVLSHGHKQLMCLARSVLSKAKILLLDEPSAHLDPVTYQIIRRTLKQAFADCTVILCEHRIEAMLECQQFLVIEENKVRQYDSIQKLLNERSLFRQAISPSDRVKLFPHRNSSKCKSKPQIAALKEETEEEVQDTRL
assay-endpoint: D activity at 1 μM (%)

{"compound": "Cc1cccc(C)c1-c1cc2nc(n1)NS(=N)(=O)c1cccc(c1)C(=O)N(Cc1cnc3oc(C4CC4)cc3n1)[C@H](CC(C)(C)C)CO2 (stereo partly shown) [Compound I-148]", "D activity at 1 μM (%)": "+++ (+++ is >60%)"}
{"compound": "Cc1cccc(CC(C)C)c1-c1nc2nc(c1C)OC[C@@H](CC(C)(C)C)N(Cc1cnc3nc(C4CC4)n(C)c3n1)C(=O)c1cccc(c1)S(=O)(=O)N2 (atropisomer, axis not shown)", "D activity at 1 μM (%)": "+++ (+++ is >60%)"}
{"compound": "Cc1cccc(C)c1-c1cc2nc(n1)NS(=O)(=O)c1cccc(c1)C(=O)N(Cc1cnc3oc(C4(C)CC4)cc3n1)[C@H](COC(C)C)CO2", "D activity at 1 μM (%)": "+++ (+++ is >60%)"}
{"compound": "Cc1cccc(C)c1-c1nc2nc(c1C)OC[C@@H](C[C@H]1CCCCO1)N(Cc1cnc3cc(C4CC4)n(C)c3n1)C(=O)c1cccc(c1)S(=O)(=O)N2", "D activity at 1 μM (%)": "+++ (+++ is >60%)"}
{"compound": "Cc1cccc(C)c1-c1nc2nc(c1C)OC[C@@H](CC1(C)CC1)N(Cc1cnc3cc(C4(C)CC4)n(C)c3n1)C(=O)c1cccc(c1)S(=O)(=O)N2", "D activity at 1 μM (%)": "+++ (+++ is >60%)"}
{"compound": "Cc1cccc(C)c1-c1cc2nc(n1)NS(=O)(=O)c1cccc(c1)C(=O)N(Cc1nc3c(cc(C(C)C)n3C)s1)[C@H](CC(C)(C)C)CO2", "D activity at 1 μM (%)": "+++ (+++ is >60%)"}
{"compound": "Cc1cccc(C)c1-c1cc2nc(n1)NS(=O)(=O)c1cccc(c1)C(=O)N(Cc1cnc3c(n1)CN(C(C)C)C3=O)[C@@H](CCC1(C)CC1)CO2 (stereo in doubt)", "D activity at 1 μM (%)": "+++ (+++ is >60%)"}
{"compound": "Cc1cccc(C)c1-c1nc2nc(c1C)OC[C@@H](CC(C)(C)C)N(Cc1cnc3oc(C(C)C)cc3n1)C(=O)c1cccc(c1)S(=O)(=O)N2", "D activity at 1 μM (%)": "+++ (+++ is >60%)"}

Considering Cc1cccc(CC(C)C)c1-c1nc2nc(c1C)OC[C@@H](COC(C)C)N(Cc1cnc3cc(C(C)C)n(C)c3n1)C(=O)c1cccc(c1)S(=O)(=O)N2 (atropisomer, axis not shown) , its D activity at 1 μM (%) with CFTR (F508del/MF-HBE cells) (Homo sapiens, UniProt P13569, DEL508-508) was recorded as +++ (+++ is >60%)

Considering `Cc1cccc(C)c1-c1cc2nc(n1)NS(=O)(=O)c1cccc(c1)C(=O)N(Cc1cnc3oc(C(C)C)cc3n1)[C@H](COC1CCCC1)CO2` , its D activity at 1 μM (%) with CFTR (F508del/MF-HBE cells) (Homo sapiens, UniProt P13569, DEL508-508) was recorded as +++ (+++ is >60%)

Considering `COCCn1c(C(C)C)cc2ncc(CN3C(=O)c4cccc(c4)S(=O)(=O)Nc4nc(cc(-c5c(C)cccc5C)n4)OC[C@H]3CC(C)(C)C)nc21` , its D activity at 1 μM (%) with CFTR (F508del/MF-HBE cells) (Homo sapiens, UniProt P13569, DEL508-508) was recorded as +++ (+++ is >60%)

Considering `Cc1cccc(C)c1-c1cc2nc(n1)NS(=O)(=O)c1cccc(c1F)C(=O)N(Cc1cnc3cc(C(C)C)n(CCO)c3n1)[C@H](CC1(C)CC1)CO2` , its D activity at 1 μM (%) with CFTR (F508del/MF-HBE cells) (Homo sapiens, UniProt P13569, DEL508-508) was recorded as +++ (+++ is >60%)

Considering `Cc1cccc(C)c1-c1cc2nc(n1)NS(=O)(=O)c1cccc(c1)C(=O)N(Cc1cnc3cc(C4(C)CC4)n(C)c3n1)[C@H](CC13CC(C1)C3)CO2` , its D activity at 1 μM (%) with CFTR (F508del/MF-HBE cells) (Homo sapiens, UniProt P13569, DEL508-508) was recorded as +++ (+++ is >60%)

Considering `Cc1cccc(C)c1-c1cc2nc(n1)NS(=O)(=O)c1cccc(c1)C(=O)N(Cc1cnc3nn(C(C)C)cc3n1)[C@H](CC(C)(C)C)CO2` , its D activity at 1 μM (%) with CFTR (F508del/MF-HBE cells) (Homo sapiens, UniProt P13569, DEL508-508) was recorded as +++ (+++ is >60%)
